SYSTEM_UNDER_TEST: gp41 MPER peptide (residues 657 to 669 of gp41 linked to a C-terminal C9 tag)
EXPERIMENT_NOTES: SPR
pKd: −log10 of the molar value.
RECORDED_METRIC: pKd

binder="2F5 F100BS (antibody, V domains shown) VH: RITLKESGPPLVKPTQTLTLTCSFSGFSLSDFGVGVGWIRQPPGKALEWLAIIYSDDDKRYSPSLNTRLTITKDTSKNQVVLVMTRVSPVDTATYFCAHRRGPTTLSGVPIARGPVNAMDVWGQGITVTISS VL: ALQLTQSPSSLSASVGDRITITCRASQGVTSALAWYRQKPGSPPQLLIYDASSLESGVPSRFSGSGSGTEFTLTISTLRPEDFATYYCQQLHFYPHTFGGGTRVDVRR" recorded_result=7.92
binder="2F5 L100AW (antibody, V domains shown) VH: RITLKESGPPLVKPTQTLTLTCSFSGFSLSDFGVGVGWIRQPPGKALEWLAIIYSDDDKRYSPSLNTRLTITKDTSKNQVVLVMTRVSPVDTATYFCAHRRGPTTWFGVPIARGPVNAMDVWGQGITVTISS VL: ALQLTQSPSSLSASVGDRITITCRASQGVTSALAWYRQKPGSPPQLLIYDASSLESGVPSRFSGSGSGTEFTLTISTLRPEDFATYYCQQLHFYPHTFGGGTRVDVRR" recorded_result=7.95
